Listed here: items and their measured IC50.
- assay-target: human type 1 glycine transporter (GlyT1) (Homo sapiens, UniProt P48067)
- Construct: T98G cells (glioma cells) expressing human type 1 glycine transporter (GlyT1) were used
- protocol-details: Glycine uptake inhibition experiment ([3H]glycine uptake)
- Assay type: cell-based
- test-settings: GlyT1

[
  {
    "compound": "CCn1cc(-c2cccc(C(NC(=O)c3cccc(C(F)(F)F)c3C)C3(O)CCC(F)(F)CC3)c2)cn1 (single isomer, unassigned) [Compound 150]",
    "IC50 (nM)": 840
  },
  {
    "compound": "Cc1ccccc1C(=O)NC(c1cccc(F)c1Cl)[C@]1(O)CC[C@@H](F)CC1 (single isomer, unassigned)",
    "IC50 (nM)": 1900
  },
  {
    "compound": "O=C(NC(c1cccc(Cl)c1Cl)C1(O)CCC(F)(F)CC1)c1nccc(C(F)(F)F)c1Cl (single isomer, unassigned) [Compound 136]",
    "IC50 (nM)": 3700
  },
  {
    "compound": "CCn1cc(-c2cccc(C(NC(=O)c3cccc(Cl)c3C)C3(O)CCC(F)(F)CC3)c2)cn1 (centres unmarked)",
    "IC50 (nM)": 310
  },
  {
    "compound": "O=C(NC(c1cc(Cl)ccn1)[C@]1(O)CC[C@@H](F)CC1)c1ccc(C(F)(F)F)nc1Cl (single isomer, unassigned)",
    "IC50 (nM)": 270
  },
  {
    "compound": "O=C(NC(c1cccnc1Cl)C1(O)CCC(F)(F)CC1)c1ccnc(C(F)(F)F)c1Cl (single isomer, unassigned)",
    "IC50 (nM)": 850
  },
  {
    "compound": "O=C(NC(c1cccnc1Cl)[C@]1(O)CC[C@@H](F)CC1)c1nccc(C(F)(F)F)c1Cl (single isomer, unassigned)",
    "IC50 (nM)": 330
  },
  {
    "compound": "O=C(NC(c1cccc(Br)c1)C1(O)CC=CCC1)c1nccc(C(F)(F)F)c1Cl (centres unmarked)",
    "IC50 (nM)": 410
  },
  {
    "compound": "O=C(NC(c1cc(Cl)ccn1)C1(O)CCC(F)(F)CC1)c1ccc(C(F)(F)F)nc1Cl (single isomer, unassigned)",
    "IC50 (nM)": 620
  },
  {
    "compound": "O=C(NC(c1cccc(F)c1Cl)[C@]1(O)CC[C@@H](F)CC1)c1ccccc1OC(F)(F)F (single isomer, unassigned)",
    "IC50 (nM)": 3400
  },
  {
    "compound": "O=C(NC(c1cccc(F)c1Cl)[C@]1(O)CC[C@@H](F)CC1)c1cccc2ccncc12 (single isomer, unassigned)",
    "IC50 (nM)": 1600
  },
  {
    "compound": "O=C(NC(c1cccc(F)c1Cl)[C@]1(O)CC[C@@H](F)CC1)c1ccc(C(F)(F)F)cc1Cl (single isomer, unassigned)",
    "IC50 (nM)": 410
  },
  {
    "compound": "O=C(NC(c1cccc(Cl)c1F)C1(O)CCC(F)(F)CC1)c1cc(C(F)(F)F)ncc1Cl (single isomer, unassigned)",
    "IC50 (nM)": 920
  },
  {
    "compound": "O=C(NC(c1cccc(Cl)n1)C1(O)CCC(F)(F)CC1)c1nccc2ccccc12 (single isomer, unassigned)",
    "IC50 (nM)": 130
  },
  {
    "compound": "O=C(NC(c1cccc(Cl)n1)[C@]1(O)CC[C@@H](F)CC1)c1cc(C(F)(F)F)ncc1Cl (single isomer, unassigned)",
    "IC50 (nM)": 550
  },
  {
    "compound": "O=C(N[C@@H](c1cccc(-c2ncccn2)c1)C1(O)CCCC1)c1nccc(C(F)(F)F)c1Cl",
    "IC50 (nM)": 130
  },
  {
    "compound": "O=C(NC(c1cccc(-c2ccccn2)c1)C1(O)CCC(F)(F)CC1)c1nccc(C(F)(F)F)c1Cl (single isomer, unassigned) [Compound 188]",
    "IC50 (nM)": 73
  },
  {
    "compound": "O=C(NC(c1cc(Cl)ccn1)C1(O)CCC(F)(F)CC1)c1cc(C(F)(F)F)cnc1Cl (single isomer, unassigned)",
    "IC50 (nM)": 520
  },
  {
    "compound": "CCn1cc(-c2cccc(C(NC(=O)c3cccc(C(F)(F)F)c3C)C3(O)CCC(F)(F)CC3)c2)cn1 (centres unmarked) [Compound 125]",
    "IC50 (nM)": 350
  },
  {
    "compound": "CCn1cc(-c2cccc(C(NC(=O)c3cccc4ccccc34)C3(O)CCC(F)(F)CC3)c2)cn1 (single isomer, unassigned) [Compound 196]",
    "IC50 (nM)": 290
  },
  {
    "compound": "CCn1cc(-c2cccc(C(NC(=O)c3cccc(C(F)(F)F)c3Cl)C3(O)CCC(F)(F)CC3)c2)cn1 (single isomer, unassigned) [Compound 122]",
    "IC50 (nM)": 220
  },
  {
    "compound": "CCn1cc(-c2cccc(C(NC(=O)c3c(Cl)ccc(C(F)(F)F)c3Cl)C3(O)CCC(F)(F)CC3)c2)cn1 (centres unmarked) [Compound 123]",
    "IC50 (nM)": 280
  },
  {
    "compound": "O=C(NC(c1cccc(F)c1Cl)[C@]1(O)CC[C@@H](F)CC1)c1nccc(C(F)(F)F)c1Cl (single isomer, unassigned) [Compound 214]",
    "IC50 (nM)": 450
  }
]

The measured values listed here are drawn from patent US20160130278A1.
